Every entry's value here was drawn from patent US20240358834A1.

Biological target: T1, human CD19 protein with a biotinylated AviTag (Acrobiosystems) (human, UniProt P15391 20-291, biotinylated AviTag)
T1 construct: Captured on streptavidin-coated microplate wells; also called biotinylated-AviTag-CD19; hCD19; not shown: AviTag
T1 sequence (looked up): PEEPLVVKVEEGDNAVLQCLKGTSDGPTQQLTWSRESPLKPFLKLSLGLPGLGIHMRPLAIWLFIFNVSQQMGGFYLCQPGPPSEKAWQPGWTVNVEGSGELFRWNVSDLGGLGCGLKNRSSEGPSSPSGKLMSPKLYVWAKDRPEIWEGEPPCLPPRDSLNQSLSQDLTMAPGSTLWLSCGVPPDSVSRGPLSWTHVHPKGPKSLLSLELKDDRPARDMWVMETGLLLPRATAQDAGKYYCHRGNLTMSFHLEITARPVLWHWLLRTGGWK
Assay: phage ELISA, biotinylated AviTag CD19 on streptavidin wells; signal ratio to FMC63 standard

binder	ELISA hCD19 (ratio FMC63)
scFv 1 (scFv, Canine scFv (VL-linker-VH); also called scFv_01; P3-15) scFv: QAVLNQPASVSAALGQRVTISCNTNIGSPYDVQWYQQLPGKSPKTIIYGNSNRPSGVPVRFSGSKSGSTATLTIAGIQAEDEADYYCQSYDDSLDGRVVFGGGTQLTVLGGGSSRSSSSGGGGSGGGGEVQLVESGGDLVKPGGSLRLSCVASGFTFSNHEMYWVRQAPGKGLEWVARIYDSGSRTRYADAVKGRFTISRDNAKNTLYLQMNSLTAEDTAVYFCAGGNSRGWTEFGMDYWGPGTLVTVSSASTTAPSVTSGQAGQHHHHHHGAYPYDVPDYAS	0.84 ratio to FMC63
scFv 13 (scFv, Canine scFv (VL-linker-VH); also called P3-36; P3-38) scFv: QPVLTQPPSVSGALGQTVTISCSGSHTNIGSGFDVQWYQQLPGKSPQTLVYANINRPSGVPARFSGSKSGSTATLTITGVQAEDEADYYCQSYDDNFDYVFGSGTQLTVLGGGSSRSSSSGDGGSGGGGEVQLVESGGGLMKPGGSLKLSCLASGFTFSRYYMYWVRQAPGKGLQWVAQISSDGRRTYYADAVQGRFTISRDNVKNTVYLQMNSLSDEDTAVYYCVREDYFDFDYWGQGTLVTVSSASTTAPSVTSGQAGQHHHHHHGAYPYDVPDYAS	0.28 ratio to FMC63
